System: 883617-216-R-J1-PDC tumor spheroids, viability;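 further: spheroids exposed to agents for 7 days before the viability read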
Assay: Anticancer human tumor 883617-216-R-J1-PDC patient-derived bladder carcinoma cell line growth inhibition [PI3K]
Settings: second compound 10 µM; first compound 0.001 µM; active compounds read low; spheroids with HUVEC and MSC
Answer each item with its documented viability, T/C.

Documented viability, T/C of Cn1ncnc1[C@H]1c2n[nH]c(=O)c3cc(F)cc(c23)N[C@@H]1c1ccc(F)cc1 + Cc1nc(NC(=O)N2CCCC2C(N)=O)sc1-c1ccnc(C(C)(C)C(F)(F)F)c1 : 8.2%

Documented viability, T/C of CC(=O)c1c(C)c2cnc(Nc3ccc(N4CCNCC4)cn3)nc2n(C2CCCC2)c1=O + Cc1nc(NC(=O)N2CCCC2C(N)=O)sc1-c1ccnc(C(C)(C)C(F)(F)F)c1 : 6.55%

Documented viability, T/C of CC(C)n1nc(-c2ccc3oc(N)nc3c2)c2c(N)ncnc21 + Cc1nc(NC(=O)N2CCCC2C(N)=O)sc1-c1ccnc(C(C)(C)C(F)(F)F)c1 : 7.02%

Documented viability, T/C of Cn1ncnc1[C@H]1c2n[nH]c(=O)c3cc(F)cc(c23)N[C@@H]1c1ccc(F)cc1 + CC(Nc1ncnc2nc[nH]c12)c1cc2cccc(Cl)c2c(=O)n1-c1ccccc1 : 41.7%

Documented viability, T/C of CC(C)n1nc(-c2ccc3oc(N)nc3c2)c2c(N)ncnc21 + CC(Nc1ncnc2nc[nH]c12)c1cc2cccc(Cl)c2c(=O)n1-c1ccccc1 : 50.7%

Documented viability, T/C of CC(=O)c1c(C)c2cnc(Nc3ccc(N4CCNCC4)cn3)nc2n(C2CCCC2)c1=O + CC(Nc1ncnc2nc[nH]c12)c1cc2cccc(Cl)c2c(=O)n1-c1ccccc1 : 39.4%
